- Test system: 313798-341-R-J2-PDC spheroids, viability
- method_notes: Anticancer human tumor 313798-341-R-J2-PDC patient-derived cervical squamous cell carcinoma cell line growth inhibition [PI3K]
- particulars: curve of first compound; second compound 1 µM; spheroids with HUVEC and MSC
pIC50: −log10 of the molar value.
measured_metric: pIC50

compound	target_system	qualifier_operator	obs_value
Cn1ncnc1[C@H]1c2n[nH]c(=O)c3cc(F)cc(c23)N[C@@H]1c1ccc(F)cc1 + COc1c(OCCCN2CCOCC2)ccc2c3n(c(=NC(=O)c4cnc(N)nc4)nc12)CCN3	313798-341-R-J2-PDC spheroids, viability	>	9.50
C=CC(=O)N1CCN(c2nc(=O)n(-c3c(C)ccnc3C(C)C)c3nc(-c4c(O)cccc4F)c(F)cc23)C(C)C1 (stereo not given) + CC(Nc1ncnc2nc[nH]c12)c1cc2cccc(Cl)c2c(=O)n1-c1ccccc1	313798-341-R-J2-PDC spheroids, viability	<	5.00
Cn1ncnc1[C@H]1c2n[nH]c(=O)c3cc(F)cc(c23)N[C@@H]1c1ccc(F)cc1 + CC(Nc1ccc2c(c1)OCCn1cc(N3C(=O)OCC3C(F)F)nc1-2)C(N)=O	313798-341-R-J2-PDC spheroids, viability	=	7.65
C#Cc1c(F)ccc2cc(O)cc(-c3ncc4c(N5CC6CCC(C5)N6)nc(OCC56CCCN5CC(F)C6)nc4c3F)c12 (stereo not given) + CC(Nc1ncnc2nc[nH]c12)c1cc2cccc(Cl)c2c(=O)n1-c1ccccc1	313798-341-R-J2-PDC spheroids, viability	<	5.00
CC(C)NCC(C(=O)N1CCN(c2ncnc3c2C(C)CC3O)CC1)c1ccc(Cl)cc1 (stereo not given) + CC(Nc1ncnc2nc[nH]c12)c1cc2cccc(Cl)c2c(=O)n1-c1ccccc1	313798-341-R-J2-PDC spheroids, viability	=	5.74

----------
viability, T/C values for the compounds below.
- System: 313798-341-R-J2-PDC spheroids, viability
- method_notes: Anticancer human tumor 313798-341-R-J2-PDC cell line growth inhibition [PI3K];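 note: spheroids exposed to compounds for seven days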;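 for viability, T/C: 100% = DMSO vehicle control viability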
- particulars: second compound 0.0316 µM; first compound 0.0316 µM; stronger effect = lower value; spheroids with HUVEC and MSC
- From the text: Combinatorial screen of targeted agents with the PI3K inhibitors inavolisib, alpelisib, duvelisib, and copanlisib in multi-cell type tumor spheroids A high-throughput screen of multi-cell type tumor spheroids was designed to identify active combinations of targeted small molecules and PI3K pathway inhibitors. […] Compounds. […] If the clinical Cmax for an agent had not been determined, the highest concentration tested was 10 microM. […]

compound	result_unit	viability, T/C
CCN1CCN(Cc2ccc(Nc3ncc(F)c(-c4cc(F)c5nc(C)n(C(C)C)c5c4)n3)nc2)CC1 + Cc1nc(NC(=O)N2CCCC2C(N)=O)sc1-c1ccnc(C(C)(C)C(F)(F)F)c1	%	109
C[C@@H](NC(=O)c1ncnc(N)c1Cl)c1ncc(C(=O)Nc2cc(C(F)(F)F)c(Cl)cn2)s1 + COc1c(OCCCN2CCOCC2)ccc2c3n(c(=NC(=O)c4cnc(N)nc4)nc12)CCN3	%	73.6
CC(=O)c1c(C)c2cnc(Nc3ccc(N4CCNCC4)cn3)nc2n(C2CCCC2)c1=O + CC(Nc1ncnc2nc[nH]c12)c1cc2cccc(Cl)c2c(=O)n1-c1ccccc1	%	101
CNC(=O)c1ccc(N2C(=S)N(c3ccc(C#N)c(C(F)(F)F)c3)C(=O)C2(C)C)cc1F + CC(Nc1ccc2c(c1)OCCn1cc(N3C(=O)OCC3C(F)F)nc1-2)C(N)=O	%	93.3
CC(C)n1nc(-c2ccc3oc(N)nc3c2)c2c(N)ncnc21 + CC(Nc1ncnc2nc[nH]c12)c1cc2cccc(Cl)c2c(=O)n1-c1ccccc1	%	65.7
Cn1ncc(Cl)c1-c1cc(C(=O)NC(CN)Cc2cccc(F)c2)sc1Cl (stereo unspecified) + Cc1nc(NC(=O)N2CCCC2C(N)=O)sc1-c1ccnc(C(C)(C)C(F)(F)F)c1	%	109
C[C@@H](NC(=O)c1ncnc(N)c1Cl)c1ncc(C(=O)Nc2cc(C(F)(F)F)c(Cl)cn2)s1 + CC(Nc1ccc2c(c1)OCCn1cc(N3C(=O)OCC3C(F)F)nc1-2)C(N)=O	%	99.9
CC(C)NCC(C(=O)N1CCN(c2ncnc3c2C(C)CC3O)CC1)c1ccc(Cl)cc1 (stereo unspecified) + CC(Nc1ncnc2nc[nH]c12)c1cc2cccc(Cl)c2c(=O)n1-c1ccccc1	%	114
Cn1nccc1Nc1nccc(-c2ccn(C(CO)c3ccc(Cl)c(F)c3)c(=O)c2)n1 (stereo unspecified) + Cc1nc(NC(=O)N2CCCC2C(N)=O)sc1-c1ccnc(C(C)(C)C(F)(F)F)c1	%	102
CC1(C)CCC(Nc2ncc(C(F)(F)F)c(-c3c[nH]c4c(P(C)(C)=O)c(C#N)ccc34)n2)CN1 (stereo unspecified) + CC(Nc1ccc2c(c1)OCCn1cc(N3C(=O)OCC3C(F)F)nc1-2)C(N)=O	%	45
Cn1ncnc1[C@H]1c2n[nH]c(=O)c3cc(F)cc(c23)N[C@@H]1c1ccc(F)cc1 + Cc1nc(NC(=O)N2CCCC2C(N)=O)sc1-c1ccnc(C(C)(C)C(F)(F)F)c1	%	93.9

----------
viability, T/C values for the compounds below.
- Test system: 313798-341-R-J2-PDC spheroids, viability
- method_notes: Anticancer human tumor 313798-341-R-J2-PDC cell line growth inhibition [PI3K];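 note: spheroids exposed to compounds for seven days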;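 for viability, T/C: 100% = DMSO vehicle control viability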
- particulars: second compound 0.0316 µM; first compound 0.316 µM; stronger effect = lower value; spheroids with HUVEC and MSC
- From the text: Combinatorial screen of targeted agents with the PI3K inhibitors inavolisib, alpelisib, duvelisib, and copanlisib in multi-cell type tumor spheroids A high-throughput screen of multi-cell type tumor spheroids was designed to identify active combinations of targeted small molecules and PI3K pathway inhibitors. […] Compounds. […] If the clinical Cmax for an agent had not been determined, the highest concentration tested was 10 microM. […]

compound	target_system	viability, T/C [%]
C#Cc1c(F)ccc2cc(O)cc(-c3ncc4c(N5CC6CCC(C5)N6)nc(OCC56CCCN5CC(F)C6)nc4c3F)c12 (stereo unspecified) + Cc1nc(NC(=O)N2CCCC2C(N)=O)sc1-c1ccnc(C(C)(C)C(F)(F)F)c1	313798-341-R-J2-PDC spheroids, viability	90.5
Cn1ncc(Cl)c1-c1cc(C(=O)NC(CN)Cc2cccc(F)c2)sc1Cl (stereo unspecified) + COc1c(OCCCN2CCOCC2)ccc2c3n(c(=NC(=O)c4cnc(N)nc4)nc12)CCN3	313798-341-R-J2-PDC spheroids, viability	53.7
CC1(C)CCC(CN2CCN(c3ccc(C(=O)NS(=O)(=O)c4ccc(NCC5CCOCC5)c([N+](=O)[O-])c4)c(Oc4cnc5[nH]ccc5c4)c3)CC2)=C(c2ccc(Cl)cc2)C1 + CC(Nc1ccc2c(c1)OCCn1cc(N3C(=O)OCC3C(F)F)nc1-2)C(N)=O	313798-341-R-J2-PDC spheroids, viability	89.5
C=CC(=O)N1CCN(c2nc(=O)n(-c3c(C)ccnc3C(C)C)c3nc(-c4c(O)cccc4F)c(F)cc23)C(C)C1 (stereo unspecified) + Cc1nc(NC(=O)N2CCCC2C(N)=O)sc1-c1ccnc(C(C)(C)C(F)(F)F)c1	313798-341-R-J2-PDC spheroids, viability	96.5
CC(Cn1ccc(-c2ccc(C#N)c(Cl)c2)n1)NC(=O)c1cc(C(C)O)[nH]n1 (stereo unspecified) + CC(Nc1ccc2c(c1)OCCn1cc(N3C(=O)OCC3C(F)F)nc1-2)C(N)=O	313798-341-R-J2-PDC spheroids, viability	106
CCCS(=O)(=O)Nc1ccc(F)c(C(=O)c2c[nH]c3ncc(-c4ccc(Cl)cc4)cc23)c1F + CC(Nc1ncnc2nc[nH]c12)c1cc2cccc(Cl)c2c(=O)n1-c1ccccc1	313798-341-R-J2-PDC spheroids, viability	108
CC(C)NCC(C(=O)N1CCN(c2ncnc3c2C(C)CC3O)CC1)c1ccc(Cl)cc1 (stereo unspecified) + Cc1nc(NC(=O)N2CCCC2C(N)=O)sc1-c1ccnc(C(C)(C)C(F)(F)F)c1	313798-341-R-J2-PDC spheroids, viability	88.7
CCCS(=O)(=O)Nc1ccc(F)c(C(=O)c2c[nH]c3ncc(-c4ccc(Cl)cc4)cc23)c1F + Cc1nc(NC(=O)N2CCCC2C(N)=O)sc1-c1ccnc(C(C)(C)C(F)(F)F)c1	313798-341-R-J2-PDC spheroids, viability	93.7
CCN1CCN(Cc2ccc(Nc3ncc(F)c(-c4cc(F)c5nc(C)n(C(C)C)c5c4)n3)nc2)CC1 + Cc1nc(NC(=O)N2CCCC2C(N)=O)sc1-c1ccnc(C(C)(C)C(F)(F)F)c1	313798-341-R-J2-PDC spheroids, viability	131
Cn1ncc(Cl)c1-c1cc(C(=O)NC(CN)Cc2cccc(F)c2)sc1Cl (stereo unspecified) + Cc1nc(NC(=O)N2CCCC2C(N)=O)sc1-c1ccnc(C(C)(C)C(F)(F)F)c1	313798-341-R-J2-PDC spheroids, viability	70.3
Cn1nccc1Nc1nccc(-c2ccn(C(CO)c3ccc(Cl)c(F)c3)c(=O)c2)n1 (stereo unspecified) + COc1c(OCCCN2CCOCC2)ccc2c3n(c(=NC(=O)c4cnc(N)nc4)nc12)CCN3	313798-341-R-J2-PDC spheroids, viability	69.5
